The measurements presented in this section are drawn from ChEMBL document CHEMBL5537115.

- Protocol summary: Hemolytic activity in mouse erythrocytes at 8 ug/ml incubated for 1 hr by absorbance based assay
- Type: toxicity, cell-based, Erythrocyte
- Experimental context: at 8 µg/mL, read-out: Activity
Measured metric: hemolysis at 1 h, 8 ug/ml (%)

{"Molecular string": "Cc1ccccc1-c1c[n+](C)c(-c2ccc(C(C)(C)C)cc2)cc1/C=C/c1ccc(C(C)(C)C)cc1.[I-]", "Recorded value": 8.29}

====

- System: Staphylococcus aureus
- Protocol summary: Antibacterial activity against Staphylococcus aureus clinical isolate incubated for 18 to 24 hrs
- Type: functional
- Experimental context: time 18-24 hrs

{"Compound": "C[n+]1cc(-c2ccccc2)c(/C=C/c2ccc(C(C)(C)C)cc2)cc1-c1ccc(C(C)(C)C)cc1.[I-]", "MBC": "0.125 µg/mL"}
{"Compound": "C[n+]1cc2c3c(ccc2c2ccc4cc5c(cc4c21)OCO5)OCO3", "MBC": "> 64 µg/mL"}
{"Compound": "Cc1ccccc1-c1c[n+](C)c(-c2ccc(C(C)(C)C)cc2)cc1/C=C/c1ccc(O)cc1.[I-]", "MBC": "4 µg/mL"}
{"Compound": "CC(=O)NC[C@H]1CN(c2ccc(N3CCOCC3)c(F)c2)C(=O)O1 [LINEZOLID]", "MBC": "> 64 µg/mL"}

====

- System: Staphylococcus aureus
- Protocol summary: Antibacterial activity against Staphylococcus aureus clinical isolate assessed as bacterial growth inhibition incubated for 20 hrs by CLSI based broth microdilution method
- Type: functional

{"Molecular string": "CCOc1ccc(/C=C/c2cc(-c3ccccc3)c[n+](C)c2-c2ccccc2)cc1.[I-]", "MIC / µg/mL": 2}
{"Molecular string": "C[n+]1cc(-c2ccccc2)c(/C=C/c2ccc(C(C)(C)C)cc2)cc1-c1ccccc1.[I-]", "MIC / µg/mL": 0.5}
{"Molecular string": "C[n+]1cc(-c2ccccc2)cc(/C=C/c2cccc(Br)c2)c1-c1ccccc1.[I-]", "MIC / µg/mL": 2}
{"Molecular string": "C[n+]1cc(-c2ccccc2)c(/C=C/c2ccc(O)cc2)cc1-c1ccc(C(C)(C)C)cc1.[I-]", "MIC / µg/mL": 0.5}
{"Molecular string": "CCCOc1ccc(/C=C/c2cc(-c3ccc(C(C)(C)C)cc3)[n+](C)cc2-c2ccccc2)cc1.[I-]", "MIC / µg/mL": 0.5}
{"Molecular string": "C[n+]1cc(-c2ccccc2)cc(/C=C/c2ccc(C#N)cc2)c1-c1ccccc1.[I-]", "MIC / µg/mL": 32}
{"Molecular string": "CN(C)c1ccc(/C=C/c2cc(-c3ccccc3)[n+](C)cc2-c2ccccc2)cc1.[I-]", "MIC / µg/mL": 1}
{"Molecular string": "C[n+]1cc(-c2ccccc2)c(/C=C/c2ccc(N3CCCC3)cc2)cc1-c1ccc2ccccc2c1.[I-]", "MIC / µg/mL": 0.5}
{"Molecular string": "C[n+]1cc(-c2ccccc2)cc(/C=C/c2ccc(C(C)(C)C)cc2)c1-c1ccccc1.[I-]", "MIC / µg/mL": 2}

====

- Test system: Streptococcus pyogenes
- Protocol summary: Antibacterial activity against erythromycin-resistant Streptococcus pyogenes 2 clinical isolate assessed as bacterial growth inhibition incubated for 20 hrs by CLSI based broth microdilution method
- Type: functional
Measured metric: MIC

{"Compound": "CCc1ccc(/C=C/c2cc(-c3ccc(C(C)(C)C)cc3)[n+](C)cc2-c2ccccc2C)cc1.[I-]", "Recorded value": "4 µg/mL"}
{"Compound": "C[n+]1cc(-c2ccccc2)cc(/C=C/c2ccc(Br)cc2)c1-c1ccccc1.[I-]", "Recorded value": "4 µg/mL"}
{"Compound": "CN[C@H](CC(C)C)C(=O)N[C@H]1C(=O)N[C@@H](CC(N)=O)C(=O)N[C@H]2C(=O)N[C@H]3C(=O)N[C@H](C(=O)N[C@H](C(=O)O)c4cc(O)cc(O)c4-c4cc3ccc4O)[C@H](O)c3ccc(c(Cl)c3)Oc3cc2cc(c3O[C@@H]2O[C@H](CO)[C@@H](O)[C@H](O)[C@H]2O[C@H]2C[C@](C)(N)[C@H](O)[C@H](C)O2)Oc2ccc(cc2Cl)[C@H]1O [VANCOMYCIN]", "Recorded value": "1 µg/mL"}
{"Compound": "C[n+]1cc(-c2ccccc2)c(/C=C/c2ccc(O)cc2)cc1-c1ccc(C(C)(C)C)cc1.[I-]", "Recorded value": "2 µg/mL"}
